# Test system: cytochrome P-450 dependent retinoic acid metabolism
# assay.overview: RA metabolism assay: in vitro inhibition of retinoic acid metabolism by P-450 inhibitors
# cond: male, rat, pH 7.4
outcome.measure: IC50 at 15 min (µM)
Kindly answer with a numeric value in µM, unit omitted.

For record c1ccc(CCNCc2ccccc2)cc1 [N-Benzyl-2-phenylethanamine] the listed IC50 at 15 min is 17.1

* * *

# System: cytochrome P-450 dependent retinoic acid metabolism
# assay.overview: RA metabolism assay: in vitro inhibition of retinoic acid metabolism by P-450 inhibitors
# cond: male, rat, rat liver microsomes, pH 7.4, probe 3H-retinoic acid (RA), 3 μM
Entries and their measured inhibition at 15 min, 100 μM follow.

Clc1cccc(C(c2ccc3[nH]cnc3c2)n2ccnc2)c1 (stereo not shown) [Liarozole] ... 89%
COC1=CC(=O)C[C@@H](C)[C@]12Oc1c(Cl)c(OC)cc(OC)c1C2=O [Griseofulvin] ... 0%
Cc1ccc(-c2ncns2)cc1 [5-(4-Methylphenyl)-1,2,4-thiadiazole] ... 4.8%

For record Clc1cccc(-c2cnco2)c1 [5-(3-Chlorophenyl)-1,3-oxazole] the listed inhibition at 15 min, 100 μM is 8.6%

* * *

# Tested on: cytochrome P-450 dependent retinoic acid metabolism in male rat hepatic microsomes
# assay.overview: RA metabolism assay: in vitro inhibition of retinoic acid metabolism by P-450 inhibitors
# cond: inhibitor 100 μM; RA 3 μM; male rat hepatic microsomes 0.12 mg/ml; 37°C, 15 min; mean of three determinations; (-) denotes stimulation of RA metabolism
Entries and their measured % Inhibition of retinoic acid metabolism follow.
Kindly answer with a numeric value in %, unit omitted.

Some solved entries appear below for comparison.
CN(C)CCCN1c2ccccc2Sc2ccc(Cl)cc21 ... 85.0
C[C@@H]1[C@H](O)[C@@H](C)/C=C/C=C/CC/C=C/C=C/C=C/C=C/C(O[C@H]2O[C@H](C)[C@@H](O)[C@H](N)[C@@H]2O)CC2O[C@](O)(CC(O)C(O)CCC(O)CC(O)CC(O)CC(=O)O[C@H]1C)CC(O)C2C(=O)O (some centres unmarked) ... 5.44
CCC1(c2ccc([N+](=O)[O-])cc2)CCC(=O)NC1=O (centres unmarked) [Nitroglutethimide] ... −1.4
CC(=O)C[C@@H](c1ccccc1)c1c(O)c2ccccc2oc1=O ... 6.5
CCC(C)n1ncn(-c2ccc(N3CCN(c4ccc(OCC5COC(Cn6cncn6)(c6ccc(Cl)cc6Cl)O5)cc4)CC3)cc2)c1=O (centres unmarked) ... 68.7
CCCC(C(=O)OCCN(CC)CC)(c1ccccc1)c1ccccc1 ... 86.0
CC(=O)C[C@H](c1ccccc1)c1c(O)c2ccccc2oc1=O ... 3.0
c1ccc(Cn2ccnc2)cc1 ... 7.6

For record O=C(O)/C=C\C(=O)O.S=C(NC1CCCCC1)N1CCC(c2cnc[nH]2)CC1 [Thiopermide maleate] the listed % Inhibition of retinoic acid metabolism is 3.4

For record O=c1cc(O)c2ccccc2o1 [4-Hydroxycoumarin] the listed % Inhibition of retinoic acid metabolism is 38.50

For record c1ccc(CCNCc2ccccc2)cc1 the listed % Inhibition of retinoic acid metabolism is 85.0

* * *

# Tested on: cytochrome P-450 dependent retinoic acid metabolism
# assay.overview: RA metabolism assay: in vitro inhibition of retinoic acid metabolism by P-450 inhibitors
# cond: male, rat, rat liver microsomes, pH 7.4, probe 3H-retinoic acid (RA), 3 μM
outcome.measure: log10 IC50 at 15 min (log10 of the value in µM)
In our notation, the value equals log10 of IC50 at 15 min in µM.

For record CC(=O)N1CCN(c2ccc(OCC3COC(Cn4ccnc4)(c4ccc(Cl)cc4Cl)O3)cc2)CC1 (centres unmarked) the listed log10 IC50 at 15 min is 1.13

For record CCC(C)n1ncn(-c2ccc(N3CCN(c4ccc(OCC5COC(Cn6cncn6)(c6ccc(Cl)cc6Cl)O5)cc4)CC3)cc2)c1=O (centres unmarked) the listed log10 IC50 at 15 min is 1.24

For record CN(C)CCCN1c2ccccc2Sc2ccc(Cl)cc21 the listed log10 IC50 at 15 min is 1.23

For record Clc1cccc(C(c2ccc3[nH]cnc3c2)n2ccnc2)c1 (centres unmarked) the listed log10 IC50 at 15 min is 0.62

For record CCCC(C(=O)OCCN(CC)CC)(c1ccccc1)c1ccccc1 the listed log10 IC50 at 15 min is 0.00

Taken from paper PMC3221503.
